Tested on: SNB-75 CNS
Test description: NCI tumour cell line growth inhibition, 48 h
Assay readout: TGI

Molecule	Reported measurement
O=P(O)(O)OCC1OC(n2cnc3c(NCc4ccco4)ncnc32)C(O)C1O (centres undefined)	> 30.6 µM
CCCCC[C@H]1CC=C2C(=O)C=C[C@@H]2CC=CCCCC(=O)O[C@@H](CCCCC)CC=C2C(=O)C=C[C@@H]2CC=CCCCC(=O)O[C@@H](CCCCC)CC=C2C(=O)C=C[C@@H]2CC=CCCCC(=O)O1	> 8.75 µM
COc1ccc(C2S/C(=C\c3cccc(OC)c3)C(=O)N2NC(=O)Cc2ccccc2)cc1 (centres undefined)	> 100 µM

Now for a further molecule.
Recorded result, C[C@]12C(=O)C=CCC1=CC[C@@H]1[C@@H]2[C@H]2CC3(O)C(=O)O[C@@]4(C)[C@H]5C[C@@]6(C)[C@@H]7[C@@]2(O)[C@]1(OC[C@H]6C(=O)O5)O[C@]734 (some centres undefined) , TGI: > 100 µM

----------
Record form. Attribute: TGI. Fill in for each entry.
Tested on: IGROV1 ovarian
Test description: NCI tumour cell line growth inhibition, 48 h

Your task in this section: give TGI for each listed record.
1. CC(C(=O)NCCNC(=O)CCC(=O)N(C)O)C(=O)NCCNC(=O)CCC(=O)N(C)O
2. Cc1cc2c(c3nocc13)C(=O)c1ccccc1C2=O
3. O=C(N/N=C\c1cccs1)c1ccncc1
4. CCn1c(-c2c(Cl)cc(O)cc2Cl)cc2c(Cl)cc(O)cc21

Output line:
> 100 µM
> 100 µM
> 100 µM
12.9 µM

----------
System: NCI-H226 lung
Test description: NCI tumour cell line growth inhibition, 48 h
Where a SMILES comes first, the peptide text is derived from it. The star is where a group is joined. Boc = CC(C)(C)OC(=O)*
Exercise: for every item that follows, state its recorded TGI.

Compound	TGI
COc1cc(O)c(C(=O)CC(C)=O)c(OC)c1	> 100 µM
COC(NC(N)=O)C(=O)O (stereo unspecified)	> 100 µM
CCN1C(=O)N(CC)C2C1NN=c1s/c(=C\c3cccs3)c(=O)n12 (stereo unspecified)	> 23 µM
C/C(=N\NC(=O)CC#N)C(CN1CCCCC1)C(c1ccccc1)c1c(O)c2ccccc2oc1=O (stereo unspecified)	> 100 µM

Below are 2 compounds. Give each one its TGI.
1. O=C1NC(O)c2ccccc2O1 (stereo unspecified)
2. CSCCC(NC(=O)C(CC(C)C)NC(=O)C1CCCN1C(=O)C(Cc1ccccc1)NC(=O)C(Cc1ccccc1)NC(=O)C(CCC(=O)O)NC(=O)OC(C)(C)C)C(N)=O (stereo unspecified) (Boc-EFFPLM-NH2; configuration not given here)

Output line:
1: > 100 µM; 2: > 100 µM

----------
I'd be grateful if you could share measured TGI for these entries.
Tested on: ACHN renal
Test description: NCI tumour cell line growth inhibition, 48 h

Molecule	TGI
CC(C(=O)NCCNC(=O)CCC(=O)N(C)O)C(=O)NCCNC(=O)CCC(=O)N(C)O	> 100 µM
O=C1OC(c2ccccc2)(c2ccccc2)c2ccc3ccc(F)cc3c21	> 100 µM
O=C1NC(O)c2ccccc2O1 (centres undefined)	> 100 µM

Query molecule follows.
Data point: O=P(O)(O)OCC1OC(n2cnc3c(NCc4ccco4)ncnc32)C(O)C1O (centres undefined) ; TGI = > 100 µM
